Entry source: patent US20240116985A1

# study-system: B-cat-Halo (beta-catenin HaloTag NanoBRET construct expressed in HEK293 cells) (UniProt P35222)
# Sequence (P35222 whole entry): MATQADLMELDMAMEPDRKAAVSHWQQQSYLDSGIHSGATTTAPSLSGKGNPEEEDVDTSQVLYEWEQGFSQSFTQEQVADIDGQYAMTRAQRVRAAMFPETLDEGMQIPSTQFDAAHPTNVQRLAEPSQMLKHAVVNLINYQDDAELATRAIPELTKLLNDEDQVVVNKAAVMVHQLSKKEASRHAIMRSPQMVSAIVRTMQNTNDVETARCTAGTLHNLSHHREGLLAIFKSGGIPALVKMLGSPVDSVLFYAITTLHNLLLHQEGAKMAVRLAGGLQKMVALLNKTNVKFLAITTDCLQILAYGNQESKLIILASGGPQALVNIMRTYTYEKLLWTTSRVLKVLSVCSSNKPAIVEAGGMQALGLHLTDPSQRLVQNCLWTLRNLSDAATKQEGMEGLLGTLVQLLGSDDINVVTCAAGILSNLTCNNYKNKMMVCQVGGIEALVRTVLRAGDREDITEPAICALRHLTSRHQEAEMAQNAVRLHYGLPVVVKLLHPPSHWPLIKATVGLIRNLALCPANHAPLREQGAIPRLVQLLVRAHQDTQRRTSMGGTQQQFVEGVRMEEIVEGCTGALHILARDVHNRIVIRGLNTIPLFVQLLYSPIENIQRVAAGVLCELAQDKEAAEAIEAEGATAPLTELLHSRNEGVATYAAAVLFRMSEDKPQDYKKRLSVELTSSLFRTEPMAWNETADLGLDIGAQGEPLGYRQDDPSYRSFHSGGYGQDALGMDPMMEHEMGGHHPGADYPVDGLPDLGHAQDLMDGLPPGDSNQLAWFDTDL
# experimental-details: NanoBRET Abs IC50 in HEK293 cells; Bcat-Halo, competitor TCF4-Luc
Starred links: 1 amine or outer side, 2 acyl side, 3 side chain; linkers in the order of their positions; H or OH if unused. Positions of bridges follow the written chain, without caps; N, C: chain ends. Non-standard residues stand in square brackets, D forms with d. Primed or numbered codes have the meaning given here. No end group written: not given here. PyrS2″ = (S)-3-amino-1-((pent-4-en-1-yloxy)carbonyl)pyrrolidine-3-carboxylic acid (stapling residue), C=CCCCOC(=O)N1CC[C@@](N[*:1])(C(=O)[*:2])C1; B5(4) = 2,2-bis(4-pentenyl)glycine = 2-amino-2-(pent-4-en-1-yl)hept-6-enoic acid (stitching residue), C=CCCCC(CCCC=C)(N[*:1])C(=O)[*:2]; B5(5) = 2,2-bis(4-pentenyl)glycine, 2-amino-2-(pent-4-en-1-yl)hept-6-enoic acid (stitching residue), C=CCCCC(CCCC=C)(N[*:1])C(=O)[*:2]; Phe(3-COOH) = N[C@@H](Cc1cccc(C(=O)O)c1)C(=O)O; Phe(2-CF3) = N[C@@H](Cc1ccccc1C(F)(F)F)C(=O)O; Phe(2-Cl) = N[C@@H](Cc1ccccc1Cl)C(=O)O; Phe(2-Me) = Cc1ccccc1C[C@H](N)C(=O)O; Bta = N[C@@H](Cc1csc2ccccc12)C(=O)O; αAllylPro = C=CC[C@@]1(C(=O)O)CCCN1; tBuAla = CC(C)(C)C[C@H](N)C(=O)O; Thr(ol) = C[C@@H](O)[C@H](N)CO
Please provide measured pIC50 for the entries that follow.
// pIC50: -log10(molar conc.)

query: Using the record for [αAllylPro]D[tBuAla][B5(5)]DDAAFF[PyrS2″][Phe(2-Me)][Bta]Q-NH2 (staple 1-4; staple 4-11 (inferred)) [I-1326] , report its pIC50.
result: 5.21

query: Then [αAllylPro]D[tBuAla][B5(4)]D[Phe(3-COOH)]AAFF[PyrS2″][Phe(2-Cl)][Bta][Thr(ol)] (staple 1-4; staple 4-11 (inferred)) [I-1340] ?
result: 5.17

query: Also [αAllylPro]D[tBuAla][B5(4)]D[Phe(3-COOH)]AAFF[PyrS2″][Phe(2-CF3)][Bta]Q-NH2 (staple 1-4; staple 4-11 (inferred)) [I-1341] , if possible.
result: 5.46

query: One more binder: [αAllylPro]D[tBuAla][B5(4)]D[Phe(3-COOH)]AAFF[PyrS2″][Phe(2-CF3)][Bta]S-NH2 (staple 1-4; staple 4-11 (inferred)) [I-1342]
result: 5.15

query: Same again, this time with [αAllylPro]D[tBuAla][B5(4)]D[Phe(3-COOH)]AAFF[PyrS2″][Phe(2-Cl)][Bta]Q-NH2 (staple 1-4; staple 4-11 (inferred)) [I-1338]
result: 5.44

query: Do the same for [αAllylPro]D[tBuAla][B5(4)]D[Phe(3-COOH)]AAFF[PyrS2″][Phe(2-Cl)][Bta]S-NH2 (staple 1-4; staple 4-11 (inferred)) [I-1339] please
result: 5.28
